Reported ELISA_avg values are given for each entry in this list.
targetOrTestSystem: T1, P26 (human, UniProt P02771 381-609, limits assumed)
T1 construct: also called AFP p26
T1 sequence: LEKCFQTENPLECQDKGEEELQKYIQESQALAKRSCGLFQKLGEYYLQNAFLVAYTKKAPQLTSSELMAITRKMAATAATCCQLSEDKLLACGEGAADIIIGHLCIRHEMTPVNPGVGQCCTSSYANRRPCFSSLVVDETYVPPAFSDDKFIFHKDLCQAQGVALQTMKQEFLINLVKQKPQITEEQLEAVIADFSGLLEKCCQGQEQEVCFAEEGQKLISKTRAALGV
testDescription: ELISA, format not described
Parameters: unit not given here
Please give only the number in your answer, with no unit.

Some solved cases for reference:
1. D domain SEQ ID NO: 900 (designed binder) MGSWAEFSDRLNAIDQRLWALGGSEAELAAFEKEIAAFESELQAYKGKGNPEVEILREHAAEIRKFLQAYRHN    25.3
2. D domain SEQ ID NO: 932 (designed binder) MGSWADFKWTLAYIKHRLEALGGSEAELAFFEMEIAYFEQSLQNYKGKGNPEVEALRKEAAAIRDELQAYRHN    31.5

Consider the binder D domain SEQ ID NO: 924 (designed binder) MGSWFEFEDRLFAIWTRLEALGGSEAELAAFEKEIAAFESELQAYKGKGNPEVESLRQSAASIRWLLQAYRHN and give its measured ELISA_avg. 10.9

Value lookup for ELISA_avg; key = D domain SEQ ID NO: 936 (designed binder) MGSWSLFKHRLANIKVYLEALGGSEAELADFETFIAYFEKDLQEYKGKGNPEVEALRKEAAAIRDELQAYRHN 19.6

Could you tell me which ELISA_avg is on file for D domain SEQ ID NO: 953 (designed binder) MGSWYIFKQELASIKLSLEALGGSEAELAHFEAEIAWFEWWLQWYKGKGNPEVEALRKEAAAIRDELQAYRHN ? 19.4

Can you share its ELISA_avg? I mean this binder: D domain SEQ ID NO: 851 (designed binder) MGSWHEFYDRLDAIYFRLWALGGSEAELAAFEKEIAAFESELQAYKGKGNPEVELLRLLAAEIRKELQAYRHN 9.6

GET /values?readout=ELISA_avg&item= D domain SEQ ID NO: 893 (designed binder) MGSWLEFSQRLTAIDSRLWALGGSEAELAAFEKEIAAFESELQAYKGKGNPEVENLREHAAKIRNWLQAYRHN 30.4

Which ELISA_avg value is on record for D domain SEQ ID NO: 855 (designed binder) MGSWVEFHHRLFAIDERLWALGGSEAELAAFEKEIAAFESELQAYKGKGNPEVEYLRMVAAEIRYILQAYRHN ? 21.4

Consider the binder shown here: D domain SEQ ID NO: 959 (designed binder) MGSWVYFKHRLAEIKDQLEALGGSEAELAEFETDIAWFEWMLQYYKGKGNPEVEALRKEAAAIRDELQAYRHN What is its recorded ELISA_avg? 11.1

# get_value(readout='ELISA_avg', item= D domain SEQ ID NO: 946 (designed binder) MGSWYLFKNELAWIKWRLEALGGSEAELADFEMVIAMFEDHLQEYKGKGNPEVEALRKEAAAIRDELQAYRHN ) 31.1
